- Subject of test: hCA IX (Homo sapiens)
- Assay comment: biochemical
- Assay type: biochemical
- Condition: ratio KI hCA IV / KI hCA IX
Selectivity index IV/IX overview
Give the value as a plain number.

Below, each entry is followed by its recorded Selectivity index IV/IX result.
Structure as smiles	Subject of test	Observed property	Quantitative readout
NS(=O)(=O)c1ccc(Nc2nc3nccc(-c4cccc(Cl)c4)n3n2)cc1	hCA IX (Homo sapiens)	Selectivity index IV/IX	197
NS(=O)(=O)c1ccc(Nc2nc3nccc(-c4ccncc4)n3n2)cc1	hCA IX (Homo sapiens)	Selectivity index IV/IX	17.5

Briefly, Selectivity index IV/IX measured for NS(=O)(=O)c1ccc(Nc2nc3nccc(-c4ccc(F)cc4)n3n2)cc1 : 34.5

Briefly, Selectivity index IV/IX measured for NS(=O)(=O)c1ccc(Nc2nc3nccc(-c4cccc([N+](=O)[O-])c4)n3n2)cc1 : 13.8

Briefly, Selectivity index IV/IX measured for NS(=O)(=O)c1ccc(Nc2nc3nccc(-c4ccccc4F)n3n2)cc1 : 47.2

Briefly, Selectivity index IV/IX measured for COc1cccc(-c2ccnc3nc(Nc4ccc(S(N)(=O)=O)cc4)nn23)c1 : 110

Briefly, Selectivity index IV/IX measured for NS(=O)(=O)c1ccc(Nc2nc3nccc(-c4cccc(F)c4)n3n2)cc1 : 38.1

Briefly, Selectivity index IV/IX measured for Cc1cccc(-c2ccnc3nc(Nc4ccc(S(N)(=O)=O)cc4)nn23)c1 : 185

====

- Subject of test: hCA IX (Homo sapiens)
- Assay comment: biochemical
- Type: biochemical
- Condition: ratio KI hCA II / KI hCA IX
Observed property: Selectivity index II/IX
Give the value as a plain number.

Below, each entry is followed by its recorded Selectivity index II/IX result.
Compound	Observed property	Quantitative readout
COc1ccc(-c2ccnc3nc(Nc4ccc(S(N)(=O)=O)cc4)nn23)cc1OC [Compound 1ab]	Selectivity index II/IX	2.6
NS(=O)(=O)c1ccc(Nc2nc3nccc(-c4ccccc4[N+](=O)[O-])n3n2)cc1 [Compound 1s]	Selectivity index II/IX	3.8

The compound NS(=O)(=O)c1ccc(Nc2nc3nccc(-c4ccc(Br)cc4)n3n2)cc1 [Compound 1n] , tested on hCA IX (Homo sapiens), showed Selectivity index II/IX of 3.8

The compound NS(=O)(=O)c1ccc(Nc2nc3nccc(-c4c(F)ccc(F)c4F)n3n2)cc1 [Compound 1j] , tested on hCA IX (Homo sapiens), showed Selectivity index II/IX of 1.6

The compound NS(=O)(=O)c1ccc(Nc2nc3nccc(-c4cccc([N+](=O)[O-])c4)n3n2)cc1 [Compound 1r] , tested on hCA IX (Homo sapiens), showed Selectivity index II/IX of 1.0

====

- Subject of test: hCA XII (Homo sapiens, UniProt O43570)
- Sequence (O43570 25-354): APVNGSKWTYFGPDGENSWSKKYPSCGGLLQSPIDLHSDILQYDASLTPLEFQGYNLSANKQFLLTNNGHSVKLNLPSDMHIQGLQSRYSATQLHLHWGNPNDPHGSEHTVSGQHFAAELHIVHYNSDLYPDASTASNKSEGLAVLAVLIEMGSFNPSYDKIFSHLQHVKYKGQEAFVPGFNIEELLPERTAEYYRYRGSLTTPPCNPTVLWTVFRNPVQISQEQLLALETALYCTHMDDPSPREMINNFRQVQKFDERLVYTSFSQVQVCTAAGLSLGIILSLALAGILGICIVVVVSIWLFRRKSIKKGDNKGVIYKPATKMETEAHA
- Assay comment: stopped-flow CO2 hydrase assay, hCA XII
- Format: biochemical
- Condition: ratio KI hCA II / KI hCA XII
fulfilled means recorded Selectivity index II/XII is 2 or above; not fulfilled means it is below 2.

Some solved entries appear below for comparison.
Structure as smiles	Subject of test	Assigned label
NS(=O)(=O)c1ccc(Nc2nc3nccc(-c4ccccc4Cl)n3n2)cc1	hCA XII (Homo sapiens, UniProt O43570)	fulfilled
NS(=O)(=O)c1ccc(Nc2nc3nccc(-c4ccc(Br)cc4)n3n2)cc1	hCA XII (Homo sapiens, UniProt O43570)	fulfilled
COc1cc(OC)cc(-c2ccnc3nc(Nc4ccc(S(N)(=O)=O)cc4)nn23)c1	hCA XII (Homo sapiens, UniProt O43570)	fulfilled
Cc1ccc(-c2ccnc3nc(Nc4ccc(S(N)(=O)=O)cc4)nn23)cc1	hCA XII (Homo sapiens, UniProt O43570)	not fulfilled
COc1ccc(-c2ccnc3nc(Nc4ccc(S(N)(=O)=O)cc4)nn23)cc1	hCA XII (Homo sapiens, UniProt O43570)	fulfilled

Request: Quick check, Selectivity index II/XII >= 2? NS(=O)(=O)c1ccc(Nc2nc3nccc(-c4ccccc4)n3n2)cc1
Result: not fulfilled

Request: Quick check, Selectivity index II/XII >= 2? NS(=O)(=O)c1ccc(Nc2nc3nccc(-c4ccccc4F)n3n2)cc1
Result: not fulfilled

====

Here we list compounds with their recorded Ki when tested on hCA II (Homo sapiens).
// units = nM; emit number, no label

Below, each entry is followed by its recorded Ki result.
Structure as smiles	Observed property	Quantitative readout
NS(=O)(=O)c1ccc(Nc2nc3nccc(-c4c(F)cccc4F)n3n2)cc1	Ki	17.6
NS(=O)(=O)c1ccc(Nc2nc3nccc(-c4ccccc4)n3n2)cc1	Ki	75.3
Cc1ccc(-c2ccnc3nc(Nc4ccc(S(N)(=O)=O)cc4)nn23)cc1	Ki	64
NS(=O)(=O)c1ccc(Nc2nc3nccc(-c4cccnc4)n3n2)cc1	Ki	24.8
NS(=O)(=O)c1ccc(Nc2nc3nccc(-c4ccccc4F)n3n2)cc1	Ki	35.9
NS(=O)(=O)c1ccc(Nc2nc3nccc(-c4cccs4)n3n2)cc1	Ki	98.2

The compound NS(=O)(=O)c1ccc(Nc2nc3nccc(-c4ccncc4)n3n2)cc1 , tested on hCA II (Homo sapiens), showed Ki of 43.7

The compound Cc1cccc(-c2ccnc3nc(Nc4ccc(S(N)(=O)=O)cc4)nn23)c1 , tested on hCA II (Homo sapiens), showed Ki of 55.2

The compound COc1ccc(-c2ccnc3nc(Nc4ccc(S(N)(=O)=O)cc4)nn23)cc1OC , tested on hCA II (Homo sapiens), showed Ki of 95.2

The compound NS(=O)(=O)c1ccc(Nc2nc3nccc(-c4cccc([N+](=O)[O-])c4)n3n2)cc1 , tested on hCA II (Homo sapiens), showed Ki of 48

====

- Subject of test: hCA IX (Homo sapiens)
- Assay comment: biochemical
- Type: biochemical
- Condition: ratio KI hCA I / KI hCA IX
So basically: is Selectivity index I/IX under 30? Then rule met. Not under? Then rule not met.

Structure as smiles	Assigned label
COc1cccc(-c2ccnc3nc(Nc4ccc(S(N)(=O)=O)cc4)nn23)c1	rule not met
NS(=O)(=O)c1ccc(Nc2nc3nccc(-c4c(F)cccc4F)n3n2)cc1	rule not met
NS(=O)(=O)c1ccc(Nc2nc3nccc(-c4cccs4)n3n2)cc1	rule met
NS(=O)(=O)c1ccc(Nc2nc3nccc(-c4cccc(F)c4)n3n2)cc1	rule met
NS(=O)(=O)c1ccc(Nc2nc3nccc(-c4ccccc4[N+](=O)[O-])n3n2)cc1	rule not met
NS(=O)(=O)c1ccc(Nc2nc3nccc(-c4ccc(F)cc4)n3n2)cc1	rule met

Request: Criterion: Selectivity index I/IX strictly below 30. Is it met by COc1ccccc1-c1ccnc2nc(Nc3ccc(S(N)(=O)=O)cc3)nn12 ?
Result: rule not met

Request: Criterion: Selectivity index I/IX strictly below 30. Is it met by NS(=O)(=O)c1ccc(Nc2nc3nccc(-c4ccc(I)cc4)n3n2)cc1 ?
Result: rule not met

====

- Subject of test: hCA IX (Homo sapiens)
- Assay comment: biochemical
- Format: biochemical
- Condition: ratio KI hCA II / KI hCA IX
Selectivity index II/IX overview
Give the value as a plain number.

Compound	Subject of test	Selectivity index II/IX
NS(=O)(=O)c1ccc(Nc2nc3nccc(-c4cccs4)n3n2)cc1 [Compound 1b]	hCA IX (Homo sapiens)	2.0
NS(=O)(=O)c1ccc(Nc2nc3nccc(-c4ccc([N+](=O)[O-])cc4)n3n2)cc1 [Compound 1q]	hCA IX (Homo sapiens)	1.2
NS(=O)(=O)c1ccc(Nc2nc3nccc(-c4ccncc4)n3n2)cc1 [Compound 1c]	hCA IX (Homo sapiens)	1.0
Cc1ccc(-c2ccnc3nc(Nc4ccc(S(N)(=O)=O)cc4)nn23)cc1 [Compound 1t]	hCA IX (Homo sapiens)	1.5
NS(=O)(=O)c1ccc(Nc2nc3nccc(-c4ccccc4F)n3n2)cc1 [Compound 1h]	hCA IX (Homo sapiens)	1.8

The compound NS(=O)(=O)c1ccc(Nc2nc3nccc(-c4cccc(Cl)c4)n3n2)cc1 [Compound 1l] , tested on hCA IX (Homo sapiens), showed Selectivity index II/IX of 4.06

The compound NS(=O)(=O)c1ccc(Nc2nc3nccc(-c4ccc(Cl)cc4)n3n2)cc1 [Compound 1k] , tested on hCA IX (Homo sapiens), showed Selectivity index II/IX of 0.8

The compound NS(=O)(=O)c1ccc(Nc2nc3nccc(-c4cccc(F)c4)n3n2)cc1 [Compound 1g] , tested on hCA IX (Homo sapiens), showed Selectivity index II/IX of 2.0

====

- Subject of test: hCA IX (Homo sapiens)
- Assay comment: biochemical
- Format: biochemical
- Condition: ratio KI hCA IV / KI hCA IX
So basically: is Selectivity index IV/IX under 40? Then Y. Not under? Then N.

Compound	Assigned label
NS(=O)(=O)c1ccc(Nc2nc3nccc(-c4c(F)ccc(F)c4F)n3n2)cc1 [Compound 1j]	N
COc1ccc(-c2ccnc3nc(Nc4ccc(S(N)(=O)=O)cc4)nn23)cc1OC [Compound 1ab]	N
COc1ccccc1-c1ccnc2nc(Nc3ccc(S(N)(=O)=O)cc3)nn12 [Compound 1y]	N

Request: Criterion: Selectivity index IV/IX strictly below 40. Is it met by NS(=O)(=O)c1ccc(Nc2nc3nccc(-c4cccc(Br)c4)n3n2)cc1 [Compound 1o] ?
Result: N

Request: Criterion: Selectivity index IV/IX strictly below 40. Is it met by COc1cc(OC)cc(-c2ccnc3nc(Nc4ccc(S(N)(=O)=O)cc4)nn23)c1 [Compound 1aa] ?
Result: Y

Attribution: paper PMC10586084
